meta.source: PubChem BioAssay

Assay: phospholipid biosynthesis inhibitors in animal cells, primary screen, cell-based, LOPAC library, screen 4 (AID 1347384)
Settings: phospholipid biosynthesis inhibition screen, at 10 µM
The source made the active and inactive calls. No rule for the calls is given here.
Lab note: assign the record to one of YES for active, NO for inactive

Cn1c(CCCC(=O)O)nc2cc(N(CCCl)CCCl)ccc21 ... NO
CN1C[C@H](CNC(=O)OCc2ccccc2)C[C@@H]2c3cccc4c3c(cn4C)C[C@H]21 ... NO
CC(C)NC(C)Cc1ccc(I)cc1 (configuration not stated) ... NO
CCCN(CCC)[C@@H]1CCc2cccc(O)c2C1 ... NO
CCCN(CCC)[C@@H]1CCc2ccc(O)cc2C1 ... NO

Which outcome was assigned to "O=[N+]([O-])/C=C/c1ccc2c(c1)OCO2" in this test? NO

One more compound: "COc1ccc2c(c[n+](C)c3c4cc5c(cc4ccc23)OCO5)c1OC" NO

One more compound: C[N+]1(C)C2CCC1CC(OC(=O)C(CO)c1ccccc1)C2 (configuration not stated) NO

* * *

Reported growth inhibition values for a set of compounds
Assay: inhibition of 3D7 malaria parasite growth – strain 3D7 (AID 2306);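 also: 0% = DMSO wells and 100% = chloroquine plus artemisinin control wells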
Settings: P. falciparum 3D7 erythrocytic growth, LDH absorbance, 72 h; at 2 µM; hits give high values
Form entry: value (%) — number only.

In the examples that follow, each entry is paired with its recorded growth inhibition.
CN1C(=O)[C@H](NC(=O)[C@@H](Cc2ccccc2)NC(=S)Nc2ccccc2)N=C(c2ccccc2)c2ccccc21 ... 86
CC[C@H]1CN2CC[C@H]1C[C@H]2[C@H](O)c1cc(-c2cccc(Cl)c2)nc2ccc(OC)cc12 ... 98
CCc1ccc(CC(C)NCC(O)c2ccccc2)cc1 (centres undefined) ... 89

Could you share which growth inhibition value was measured for CC(Cc1ccc(Oc2ccccc2)cc1)NCC(O)c1cccc(C(F)(F)F)c1 (centres undefined) ? 98

One more compound: "CC[C@H]1CN2CC[C@@H]1C[C@H]2[C@H](O)c1cc(-c2cc(Cl)cc(Cl)c2)nc2ccc(OC)cc12" 99

One more compound: "CN1CC=C(c2csc3ccc(NC(=O)Nc4ccc(-c5ccncc5)c(Cl)c4)cc23)CC1" 102

One more compound: COC(C(=O)OCCC1CCCN1C)(c1ccccc1)c1ccccc1 (centres undefined) 98

One more compound: "CCCCCc1cc(O)c2c(c1)OC(C)(C)c1ccncc1-2" 99

One more compound: O=C(NC1CCC(CN2CCC(c3c[nH]c4ccccc34)CC2)CC1)c1cc(-c2ccccc2Cl)n(-c2cccc(Cl)c2)n1 (centres undefined) 95

* * *

Molecular target: L-lactate dehydrogenase (Plasmodium falciparum (isolate CDC / Honduras))
Assay: PfLDH activity inhibition – cell lysate, 3D7 strain, counter-screen for P. falciparum growth inhibition project (AID 2304);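 also: 0% = vehicle and 100% = reference inhibitor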
Details: P. falciparum 3D7 crude extract, LDH APAD/NBT absorbance; at 2 µM; hits give high values
Reported inhibition values for a set of compounds
Form entry: value (%) — number only.

Could you share which inhibition value was measured for "CC(=O)N(Cc1ccccc1-c1cccc(CNCCc2ccccc2)c1)C1CCN(Cc2ccccc2)CC1" ? 0

One more compound: "COc1cc(C=CC(=O)N2CCC(CN3CCC(c4c[nH]c5ccccc45)CC3)CC2)ccc1O" -3

One more compound: "CCCc1cc(O)c2c3c(c(=O)oc2c1)CN(C)CC3" 0

One more compound: "C1=C(c2c[nH]c3ccccc23)CCN(Cc2ccccc2)C1" -1

One more compound: "N#Cc1ccc(N(CCCO)Cc2ccccc2C(F)(F)F)cc1C(F)(F)F" -5

* * *

Reported inhibition values for a set of compounds
Test: HepG2 cytotoxicity, primary screen, cytotoxicity control for P. falciparum antimalarial project, cell-based, ATP luminescence (AID 2303);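 also: 0% = DMSO wells and 100% = digitonin-killed cells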
Details: HepG2 viability, 24-48 h, at 10 µM, hits give high values
Form entry: value (%) — number only.

In the examples that follow, each entry is paired with its recorded inhibition.
O=C(C=Cc1ccccc1O)N1CCC(CN2CCC(c3c[nH]c4ccccc34)CC2)CC1 ... 27
CC(Cc1ccc(C(C)(C)C)cc1)NCC(O)c1ccccc1 (stereo not given) ... 5
Oc1cc2c(cc1CN1CCN(Cc3ccccc3)CC1)CCC2 ... 1
NC(=O)CN1CC=C(c2c[nH]c3ccc(Br)cc23)CC1 ... 30
COc1cccc(CN2CCC(CCOC(c3ccccc3)c3ccc(Cl)cc3)CC2)c1O (stereo not given) ... 22
O=C(c1cc(C(F)(F)F)cc(C(F)(F)F)c1)N1CC[C@H](CCN2CCC3(CC2)C(=O)NCN3c2ccccc2)C[C@H]1Cc1ccc(Cl)c(Cl)c1 ... 19

Could you share which inhibition value was measured for "[O-]c1n[n+](C2CCCCC2)no1" ? -13

* * *

Experiment: inhibition of endothelial tube formation, primary screen, imaging, VEGF stimulated, CD31 staining, tube area, NPC library (AID 1117340)
Settings: VEGF-stimulated ADSC/ECFC co-culture, at 10 µM, hits give high values
assay.endpoint: tube area decrease (%)
Form entry: value (%) — number only.

Could you share which tube area decrease value was measured for "CN1C(=S)CN=C(c2ccccc2)c2cc(Cl)ccc21" ? 6.8

* * *

Reported activity remaining values for a set of molecules
System: Aerobactin synthetase IucA (Klebsiella pneumoniae hvKP1)
Experiment: Biochemical IucA enzyme inhibition primary screen of the Spectrum library (AID 1346200);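 also: 100% = wells without compound and 0% = wells lacking enzyme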
Conditions: malachite green pyrophosphate, A620, at 8 µM, hits give low values
Form entry: value (%) — number only.

In the examples that follow, each entry is paired with its recorded activity remaining.
COC(=O)C(C)c1ccc(C(=O)c2cccs2)cc1 (stereo not drawn) ... 103
CO[C@H]1/C=C/O[C@@]2(C)Oc3c(C)c(O)c4c(O)c(c5c(nc6cc(C)ccn65)c4c3C2=O)NC(=O)/C(C)=C\C=C\[C@H](C)[C@H](O)[C@@H](C)C(O)[C@@H](C)[C@H](OC(C)=O)[C@@H]1C (stereo partly drawn) ... 110
CN1CCN(CCCN2c3ccccc3Sc3ccc(C(F)(F)F)cc32)CC1 ... 122
O=C(O)c1c2ccccc2cc2ccccc12 ... 116
Cc1ccc(C[N+](C)(C)C)o1 ... 106
O=c1c(-c2ccc(O)cc2)coc2cc(O)ccc12 ... 118

Could you share which activity remaining value was measured for CC(CN(C)C)CN1c2ccccc2CCc2ccccc21 (stereo not drawn) ? 105

One more molecule: "N[C@@H]1[C@@H](O[C@@H]2O[C@H](C(=O)O)[C@@H](O)[C@H](O)[C@H]2O)[C@@H](O)[C@@H](CO)O[C@@H]1O" 100

One more molecule: "O=C(O[C@@H]1Cc2c(O)cc(O)cc2O[C@@H]1c1cc(O)c(=O)c2c(O)c(O)cc([C@H]3Oc4cc(O)cc(O)c4C[C@H]3OC(=O)c3cc(O)c(O)c(O)c3)c2c1)c1cc(O)c(O)c(O)c1" 108

* * *

Experiment: liver-stage malaria parasite growth inhibition, primary screen, cell-based, HepG2, luciferase luminescence, HepG2 viability (AID 624349);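 also: 100% = mean of DMSO negative control wells on the same plate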
Conditions: P. berghei liver stage in HepG2, luciferase luminescence, concentration not given here; hits give low values
Reported parasite load remaining values for a set of compounds
Form entry: value (%) — number only.

In the examples that follow, each entry is paired with its recorded parasite load remaining.
C[N+]1(C)CCN(c2ccccc2)CC1 ... 117
CC(=O)O[C@@H]1CC[C@]2(C)C3CC[C@]4(C)C(=O)CCC4C3CC[C@H]2C1 (stereo not given in full) ... 51
Oc1ccc2c3c1OC1C(O)CC[C@@]4(O)[C@@H](C2)N(CC2CCC2)CC[C@]314 (stereo not given in full) ... 133
CCCC(=O)OCC[N+](C)(C)C ... 42.8
CCC(C)C(=O)O[C@H]1[C@H](O)C2C(CN3CC(C)CCC3[C@@]2(C)O)C2C[C@]34O[C@]5(O)C(OC(=O)C(C)(O)CC)CC[C@@]3(C)C5C(OC(C)=O)[C@@H](OC(C)=O)C4[C@@]21O (stereo not given in full) ... 35.5

Consider the record given below.
Could you share which parasite load remaining value was measured for C[C@]12CCC(=O)C=C1CCC1C2CC[C@@]2(C)C1CC[C@@H]2O (stereo not given in full) ? 68.4

* * *

Assay: HepG2 cytotoxicity, primary screen, cytotoxicity control for P. falciparum antimalarial project, cell-based, ATP luminescence (AID 2303);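 also: 0% = DMSO wells and 100% = digitonin-killed cells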
Conditions: HepG2 viability, 24-48 h, at 10 µM, hits give high values
Reported inhibition values for a set of compounds
Form entry: value (%) — number only.

CC(Cc1ccc(OCCCCOc2ccccc2)cc1)NCCCn1ccnc1 (centres undefined) ... 100
O=C(/C=C/c1ccc(Cl)c(Cl)c1)N1CCC(CN2CCC(c3c(Br)[nH]c4ccccc34)CC2)CC1 ... 41
CSc1ccc(C[C@@H](C)NC[C@H](O)c2cccc(Cl)c2)cc1 ... 8

Could you share which inhibition value was measured for "COc1ccc(C=CC(=O)N2CCC(CN3CCC(c4c[nH]c5ccccc45)CC3)CC2)cc1OC" ? 20

One more compound: "O=C(c1ccccc1)[C@H]1C[C@@H]1CN1CC=C(c2c[nH]c3ccccc23)CC1" 4

One more compound: "COc1ccc2c(c1)[nH]c1c(C=Cc3ccccc3)nccc12" 19

One more compound: "CCCc1cc([C@@H](O)[C@@H]2C[C@@H]3CCN2C[C@@H]3CC)c2ccccc2n1" 9

One more compound: O=C(NC1CCC(CN2CCC(c3c[nH]c4ccccc34)CC2)CC1)c1cc2cccc([N+](=O)[O-])c2[nH]1 (centres undefined) 36

One more compound: "COc1cccc(C(=O)[C@H]2C[C@@H]2CN2CC=C(c3c[nH]c4cccc(Br)c34)CC2)c1" 22
